study_system: T1, human factor IX (human, UniProt P00740 47-461, 12 glutamic acid residues of the GLA domain are post-translationally γ-carboxylated)
T1 construct: Zymogen used as analyte in SPR, reconstituted at 1 mg/ml; also called FIX; Human FIX (MW ~55 KDa)
T1 sequence (P00740 47-461 limits assumed): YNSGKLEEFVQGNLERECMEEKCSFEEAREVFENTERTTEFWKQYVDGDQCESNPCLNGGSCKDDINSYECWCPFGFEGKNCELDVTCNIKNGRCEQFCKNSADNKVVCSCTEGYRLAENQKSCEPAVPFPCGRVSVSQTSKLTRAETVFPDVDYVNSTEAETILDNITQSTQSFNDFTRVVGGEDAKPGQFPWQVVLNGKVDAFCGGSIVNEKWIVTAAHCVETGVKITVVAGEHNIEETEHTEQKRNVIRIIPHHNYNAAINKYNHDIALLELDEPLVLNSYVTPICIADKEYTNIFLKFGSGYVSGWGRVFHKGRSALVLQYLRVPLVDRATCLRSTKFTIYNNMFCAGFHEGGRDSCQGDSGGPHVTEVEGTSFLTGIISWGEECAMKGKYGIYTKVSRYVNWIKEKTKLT
assay_text: SPR as in Example 10, human FIX as analyte
endpoint: kon
Enter the number, and then the unit.

Data request, read-out kon, for NINA-1091.0128 (antibody, V domains shown) VH: EVQLVESGGGFVQPGGSLRLSCAVSGFTFNSYWMSWVRQAPGKGLEWVANINQDGSRKFYVASVKGRFTMSRDNAKKSVYVQMNSLRAEDTAVYYCAREGYSISSYYGMDVWGQGTTVTVSS VL: SYVLTQPPSVSVAPGETARITCGGDNIGRKSVYWYQQKSGQAPVLVIYYDSDRPSGIPERFSGSNSGNTATLTISRVEAGDEADYYCQVWDGSSDHWVFGGGTKLTVL 161000 M⁻¹ s⁻¹
